Recorded values, source the supplement of paper PMC9112550.

# Tested on: Escherichia coli TOP10;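 also: peptides expressed intracellularly from a pBAD plasmid library in pooled LB shake-flask culture, induced with 0.3% L-arabinose, DNA abundance read by NGS, three biological replicates, DESeq2 with apeglm shrinkage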
# TEST DETAILS: shrunken log2 fold change of peptide-encoding DNA abundance (4.5 h post-induction vs induction); higher = less antimicrobial activity (less host growth inhibition)
# CONDITION INFO: time post-induction: 4.5 h; library: site-saturation at positions 5, 18, 19, 20
Grouping rule (shrunken log2 fold change): bottom bin (below -0.07), middle bin (-0.07 to below 0.2), top bin (0.2 or more)

As a guide, the following entries are already answered.
RRIRRRPPRLPRPRPRPNLEPRP : top bin
RRIRNRPPRLPRPRPRPGLAPRP : top bin

input: Note: place this sequence into its band. Item: "RRIRFRPPRLPRPRPRPPPGPRP"
output: top bin

input: Which class is correct for the following sequence? "RRIRFRPPRLPRPRPRPGEVPRP"
output: middle bin

input: Returns: class label. Input: "RRIRWRPPRLPRPRPRPPQGPRP"
output: top bin

input: Band for the recorded shrunken log2 fold change of "RRIRDRPPRLPRPRPRPPAMPRP" ?
output: top bin
